IC50 listing for selected compounds.
Molecular target: butyrylcholinesterase (BuChE) from equine serum (Equus caballus, UniProt P81908)
Construct: an AChE/BuChE solution (50 μL, 0.25 unit/mL) from Electroporus electricus and equine serum, respectively
Sequence (P81908 whole entry): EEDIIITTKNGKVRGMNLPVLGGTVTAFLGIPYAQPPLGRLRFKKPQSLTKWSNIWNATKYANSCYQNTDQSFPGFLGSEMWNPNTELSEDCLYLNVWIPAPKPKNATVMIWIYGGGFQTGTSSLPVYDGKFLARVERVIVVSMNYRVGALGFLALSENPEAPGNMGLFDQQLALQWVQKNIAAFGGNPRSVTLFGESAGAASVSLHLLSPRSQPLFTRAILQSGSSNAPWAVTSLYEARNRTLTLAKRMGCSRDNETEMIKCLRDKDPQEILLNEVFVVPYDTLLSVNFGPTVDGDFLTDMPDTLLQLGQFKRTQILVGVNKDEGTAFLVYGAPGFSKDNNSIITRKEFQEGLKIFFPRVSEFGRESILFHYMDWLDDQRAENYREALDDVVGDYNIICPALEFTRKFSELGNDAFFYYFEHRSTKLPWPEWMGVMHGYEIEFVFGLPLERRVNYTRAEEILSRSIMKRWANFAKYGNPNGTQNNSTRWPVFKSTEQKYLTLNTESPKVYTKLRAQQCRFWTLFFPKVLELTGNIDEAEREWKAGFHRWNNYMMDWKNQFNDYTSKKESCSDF
Assay: BuChE inhibition, Ellman method, 96-well plates
Conditions: average from three independent experiments, ^c = IC50 greater than 0.5 mg/mL
Measured Quantity: IC50

1. N#C/C(=C\c1ncc[nH]1)c1nc2ccccc2s1 = > 1980 µM
2. Cc1cc(/C=C(\C#N)c2nc3ccccc3s2)no1 = > 1870 µM
3. N#C/C(=C\c1cccnc1)c1nc2ccccc2s1 = > 2290 µM
4. N#C/C(=C\c1ccccn1)c1nc2ccccc2s1 = > 1900 µM
5. N#C/C(=C\c1cc(-c2ccccc2)on1)c1nc2ccccc2s1 = 1400 µM
6. Cc1nn(-c2ccccc2)c(Cl)c1/C=C(\C#N)c1nc2ccccc2s1 = > 1330 µM
7. N#C/C(=C\c1ccc(-c2ccc(Cl)cc2)o1)c1nc2ccccc2s1 = 474 µM
8. N#C/C(=C\c1ccco1)c1nc2ccccc2s1 = 1880 µM
9. N#C/C(=C\c1ccc(-c2ccccc2)cc1)c1nc2ccccc2s1 = 1270 µM
10. N#C/C(=C\c1ccc(N2CCOCC2)cc1)c1nc2ccccc2s1 = > 1440 µM
11. N#C/C(=C\c1cc(-c2ccc(F)cc2)on1)c1nc2ccccc2s1 = > 1440 µM
